- assayInfo: The drug is tested on Z-008 corresponding to metagenome with ENA study accession number: PRJEB37062 and ENA sample accession number: ERS12561808 for biotransformation under anaerobic condition. The drug concentrations were measured over 9 timepoints collected between 0 and 24 hours of incubation by liquid-chromatography-coupled mass spectrometry (LC–MS); also: call rule not given here
- particulars: 2 µM
outcomeMeasure: Bacterial Biotransformation

[[record]]
compound = "Cc1nc2n(c(=O)c1CCN1CCC(c3noc4cc(F)ccc34)CC1)CCCC2O (centres undefined) [PALIPERIDONE]"
outcomemeasure = "Bacterial Biotransformation"
measvalue = "Compound NOT metabolized"

[[record]]
compound = "CN1CCN(C2=Nc3cc(Cl)ccc3Nc3ccccc32)CC1 [CLOZAPINE]"
outcomemeasure = "Bacterial Biotransformation"
measvalue = "Compound NOT metabolized"

[[record]]
compound = "O=C(O)CCc1nc(-c2ccccc2)c(-c2ccccc2)o1 [OXAPROZIN]"
outcomemeasure = "Bacterial Biotransformation"
measvalue = "Compound NOT metabolized"

